# Tested on: SU-DHL-2
# assay-text: Antiproliferative activity against BCL6 dependent human SU-DHL-2 cells after 3 days by CellTiter-Glo assay
# Type: functional
# recorded-conditions: SU-DHL-2, 72 h
The threshold is 6 µM. Values of GI50 beneath it are tagged label 1; values meeting or exceeding it are tagged label 0.

Worked examples follow.
> print(dat)
                                   molecule  assigned.label
1  COc1cccc(CN2C(=O)CCc3cc4cc(c32)OC/C=C/CO[C@H]2C[C@@H](CO)N(C2)c2cc(n3ncc(C#N)c3n2)N4)c1         label 1
2  Cc1ccccc1CN1C(=O)CCc2cc3cc(c21)OC/C=C/CO[C@H]1C[C@@H](CO)N(C1)c1cc(n2ncc(Cl)c2n1)N3         label 0
3  N#Cc1cnn2c3cc(nc12)N1C[C@H](C[C@H]1CO)OC/C=C/COc1cc(cc2c1NC(=O)CC2)N3         label 1
4  O=C1CCc2cc3cc(c2N1CC1CC(F)(F)C1)OC/C=C/CO[C@H]1C[C@@H](CO)N(C1)c1cc(n2ncc(Cl)c2n1)N3         label 0
5  O=C1CCc2cc3cc(c2N1CCCN1CCOCC1)OC/C=C/CO[C@H]1C[C@@H](CO)N(C1)c1cc(n2ncc(Cl)c2n1)N3         label 0

[ask] I wonder whether "Cc1ccc(CN2C(=O)CCc3cc4cc(c32)OC/C=C/CO[C@H]2C[C@@H](CO)N(C2)c2cc(n3ncc(Cl)c3n2)N4)cc1" has GI50 below 6 µM. Can you tell?
[reply] label 0

[ask] Queued: "O=C1CCc2cc3cc(c2N1CC1CC1)OC/C=C/CO[C@H]1C[C@@H](CO)N(C1)c1cc(n2ncc(Cl)c2n1)N3"
[reply] label 0

----------
# assay-text: Aqueous solubility of the compound at pH 7.4 after 24 hrs by LC-UV method
# Assay type: physicochemical
quantity: solubility at 24 h (µM)
Write down the numeric answer in µM and omit the unit.

[ask] Requested field: solubility at 24 h. Item: "O=C1CCc2cc3cc(c2N1)OC/C=C/CO[C@H]1C[C@@H](CO)N(C1)c1cc(n2ncc(Cl)c2n1)N3"
[reply] 31

----------
# Test system: SU-DHL-2
# assay-text: Antiproliferative activity against BCL6 dependent human SU-DHL-2 cells after 3 days by CellTiter-Glo assay
# Type: functional
# recorded-conditions: SU-DHL-2, 72 h
quantity: GI50 (µM)
Write down the numeric answer in µM and omit the unit.

Known results for compounds:
> print(dat)
                                   molecule  quantity  observed.measurement
1  O=C1CCc2cc3cc(c2N1Cc1ccccc1)OC/C=C/CO[C@H]1C[C@@H](CO)N(C1)c1cc(n2ncc(Cl)c2n1)N3      GI50                    10
2  COc1cccc(CN2C(=O)CCc3cc4cc(c32)OC/C=C/CO[C@H]2C[C@@H](CO)N(C2)c2cc(n3ncc(Cl)c3n2)N4)c1      GI50                  6.31

Consider now this further compound.
[ask] Could you share what GI50 was measured for "O=C(O)C[C@@H]1C[C@H]2CN1c1cc(n3ncc(Cl)c3n1)Nc1cc3c(c(c1)OC/C=C/CO2)N(CC1CC(F)(F)C1)C(=O)CC3" , tested on SU-DHL-2?
[reply] 20

----------
GI50 values by entry
# System: SUD4
# assay-text: Antiproliferative activity against BCL6 dependent human SUDHL4 cells after 3 days by CellTiter-Glo assay
# Format: functional
# recorded-conditions: SU-DHL-4, 72 h
Write down the numeric answer in µM and omit the unit.

Known results for compounds:
> print(dat)
                                   molecule  study.target  value.unit  observed.measurement
1  O=C1CCc2cc3cc(c2N1)OC/C=C/CO[C@H]1C[C@@H](CO)N(C1)c1cc(n2ncc(Cl)c2n1)N3          SUD4          µM                  6.31
2  COc1cccc(CN2C(=O)CCc3cc4cc(c32)OC/C=C/CO[C@H]2C[C@@H](CO)N(C2)c2cc(n3ncc(C#N)c3n2)N4)c1          SUD4          µM                  6.31
3  N#Cc1cnn2c3cc(nc12)N1CC[C@@H](C1)OCCCCOc1cc(cc2c1NC(=O)CC2)N3          SUD4          µM                    10

Consider now this further compound.
[ask] Requested field: GI50. Item: "O=C1CCc2cc3cc(c2N1)OCCCCO[C@H]1C[C@@H](CO)N(C1)c1cc(n2nccc2n1)N3"
[reply] 20

----------
pIC50 values by entry
# assay-text: Inhibition of human CK2 protein
Field pIC50 (float): negative decimal logarithm of the concentration in molar.

> print(dat)
                                   molecule  observed.measurement
1  O=C1CCc2cc3cc(c2N1CC1CC1)OC/C=C/CO[C@H]1C[C@@H](CO)N(C1)c1cc(n2ncc(Cl)c2n1)N3                  5.66

[ask] Requested field: pIC50. Item: "O=C(O)C[C@@H]1C[C@H]2CN1c1cc(n3ncc(Cl)c3n1)Nc1cc3c(c(c1)OC/C=C/CO2)N(CC1CC(F)(F)C1)C(=O)CC3"
[reply] 6.80

[ask] Queued: "CC(=O)Nc1ccc(-c2cc(NC3CC3)n3ncc(C#N)c3n2)cc1N1CC[C@@H](N(C)C)C1"
[reply] 7.92

----------
# assay-text: Binding affinity to GABA receptor (unknown origin) by radioligand displacement assay
# Set-up: species or system Homo sapiens
quantity: Ki (nM)
Write down the numeric answer in nM and omit the unit.

[ask] Requested field: Ki. Item: "O=C1CCc2cc3cc(c2N1Cc1ccccc1)OC/C=C/CO[C@H]1C[C@@H](CO)N(C1)c1cc(n2ncc(Cl)c2n1)N3"
[reply] 250

----------
pKd values by entry
# study-target: B-cell lymphoma 6 protein (Homo sapiens, UniProt P41182, C67R/C84N/C8Q)
# assay-text: Binding affinity to N-terminal His6-tagged human BCL6 BTB domain C8Q/C67R/C84N mutant expressed in Escherichia coli BL21 (DE3) by surface plasmon resonance spectrometry
Field pKd (float): negative decimal logarithm of the concentration in molar.

Known results for compounds:
> print(dat)
                                   molecule                              study.target  observed.measurement
1  N#Cc1cnn2c(Nc3ccc4c(c3)CCC(=O)N4)cc(N3CCC[C@H]3CC(=O)O)nc12  B-cell lymphoma 6 protein (Homo sapiens, UniProt P41182, C67R/C84N/C8Q)                  5.96
2               CCNc1cc(-c2cccnc2)nc2ccnn12  B-cell lymphoma 6 protein (Homo sapiens, UniProt P41182, C67R/C84N/C8Q)                  3.16
3                  N#Cc1cnn2c(NC3CC3)ccnc12  B-cell lymphoma 6 protein (Homo sapiens, UniProt P41182, C67R/C84N/C8Q)                  3.50
4  N#Cc1cnn2c(Nc3ccc4c(c3)CCC(=O)N4)cc(N3CCC[C@H]3CO)nc12  B-cell lymphoma 6 protein (Homo sapiens, UniProt P41182, C67R/C84N/C8Q)                  6.30

Consider now this further compound.
[ask] Requested field: pKd. Item: "N#Cc1cnn2c3cc(nc12)N1C[C@H](C[C@H]1CO)OC/C=C/COc1cc(cc2c1NC(=O)CC2)N3"
[reply] 8.19

----------
GI50 values by entry
# Test system: OCI-Ly1
# assay-text: Antiproliferative activity against BCL6 dependent human OCI-LY1 cells after 3 days by CellTiter-Glo assay
# Assay type: functional
# recorded-conditions: OCI-Ly1, 72 h
Write down the numeric answer in µM and omit the unit.

Known results for molecules:
> print(dat)
                                   molecule  study.target  observed.measurement
1  O=C1CCc2cc3cc(c2N1CC1CC(F)(F)C1)OC/C=C/CO[C@H]1C[C@@H](CO)N(C1)c1cc(n2ncc(Cl)c2n1)N3       OCI-Ly1                  7.94
2  CN1C(=O)CCc2cc3cc(c21)OC/C=C/CO[C@H]1C[C@@H](CO)N(C1)c1cc(n2ncc(Cl)c2n1)N3       OCI-Ly1                  6.31
3  O=C1CCc2cc3cc(c2N1)OC/C=C/CO[C@H]1C[C@@H](CO)N(C1)c1cc(n2ncc(Cl)c2n1)N3       OCI-Ly1                  3.98
4  COc1cccc(CN2C(=O)CCc3cc4cc(c32)OC/C=C/CO[C@H]2C[C@@H](CO)N(C2)c2cc(n3ncc(Cl)c3n2)N4)c1       OCI-Ly1                  6.31
5  O=C1CCc2cc3cc(c2N1Cc1ccncc1)OC/C=C/CO[C@H]1C[C@@H](CO)N(C1)c1cc(n2ncc(Cl)c2n1)N3       OCI-Ly1                    10

[ask] Requested field: GI50. Item: "N#Cc1cnn2c3cc(nc12)N1CC[C@@H](C1)OCCCCOc1cc(cc2c1NC(=O)CC2)N3"
[reply] 7.94
